Assay: Drug repurposing screens with cells derived from glioblastoma tumor samples (AID 1345199); also: % is scaled to controls: 0 for no effect and ±100 for the full control effect; nearly all actives have a fitted effect of over 40% in size
Conditions: GBM patient neurospheres viability, ATP luminescence, 48 h; at 46.1 µM (top of the series); tumour line C
Results filed as inconclusive are left out. The source made the active and inactive calls. Calls follow the shape of the dose curve; as a rule, active = well fitted inhibition curve with a large enough effect; inconclusive = small, poorly fitted or top-dose-only effect; inactive = flat fitted curve, though single readings scatter.
measurementLabel: activity, negative = cell killing

Below, 3 molecules whose answers are already recorded.
Given the molecule CC(C)(C)CC(=O)OCC(=O)[C@@]12OC(C)(C)O[C@@H]1C[C@H]1[C@@H]3CCC4=CC(=O)C=C[C@]4(C)[C@@]3(F)[C@@H](O)C[C@@]12C , what is its reported activity, negative = cell killing? -0.929% (inactive)

One more molecule: O=C[C@H](O)[C@@H](O)[C@H](O)[C@H](O)CO 7.35% (inactive)

Record: C=C1CC2C3CCC4=CC(=O)C=C[C@]4(C)[C@@]3(F)[C@@H](O)C[C@]2(C)[C@@]1(O)C(=O)COC(C)=O (stereo not given in full) -4.46% (inactive)

---
Entry NC(=O)C[C@@H](N)C(=O)O has what activity, negative = cell killing? 22.9% (inactive)

Same again, this time with COC[C@H](c1ccc(C(F)(F)F)cc1)N1CCN(C2(C)CCN(C(=O)c3c(C)ncnc3C)CC2)C[C@H]1C 5.67% (inactive)

----------
Test system: CAOV3
Test: Primary qHTS to identify gynecologic anti-cancer compounds using libraries of approved drugs and bioactive compounds (AID 1345084); also: nearly all actives have a fitted effect of over 55% in size
Conditions: Gynecologic cancer cell panel viability, ATPlite luminescence, 48 h; series mostly up to 57.5 µM
Results filed as inconclusive are left out. Activity calls are given as the source filed them. The call rests on the fitted dose curve; in most records, active means well fitted cell-killing curve with a large enough effect; inconclusive means small, poorly fitted or top-dose-only effect, or effect the other way; inactive means flat fitted curve, though single readings scatter.
One label from this list, please: true = active, false = inactive

Please share the test call associated with NCC1CCN(c2nccc(-c3ccc4ccccc4c3)n2)CC1 . true

Moving on to C[C@@]12C(=O)N(c3ccc(C(=O)Nc4cccc5cccnc45)cc3)C(=O)[C@@H]1[C@@H]1C=C[C@H]2C1 false

Quick one: CC1(CO)CC2C(O)C3=C(CC(C)(O)C2C1)C(=O)OC3 (stereo not given) false

Query C=C(COC(=O)C(O)C(O)CN)C12OC1C1(C)C(=CC2=O)C(O)C(O)CC1C (stereo not given) next false

Kindly review the next molecule as well.
Call for entry C=C1C(OC2OC(CO)C(O)C(O)C2O)CC2C(C)(C)C(O)CCC2(C)C1CC/C(C)=C\COC(=O)CC(=O)O (stereo not given) : false

----------
Biological target: Cytochrome P450 2C9 (Homo sapiens) (UniProt P11712)
Sequence (P11712 whole entry, looked up): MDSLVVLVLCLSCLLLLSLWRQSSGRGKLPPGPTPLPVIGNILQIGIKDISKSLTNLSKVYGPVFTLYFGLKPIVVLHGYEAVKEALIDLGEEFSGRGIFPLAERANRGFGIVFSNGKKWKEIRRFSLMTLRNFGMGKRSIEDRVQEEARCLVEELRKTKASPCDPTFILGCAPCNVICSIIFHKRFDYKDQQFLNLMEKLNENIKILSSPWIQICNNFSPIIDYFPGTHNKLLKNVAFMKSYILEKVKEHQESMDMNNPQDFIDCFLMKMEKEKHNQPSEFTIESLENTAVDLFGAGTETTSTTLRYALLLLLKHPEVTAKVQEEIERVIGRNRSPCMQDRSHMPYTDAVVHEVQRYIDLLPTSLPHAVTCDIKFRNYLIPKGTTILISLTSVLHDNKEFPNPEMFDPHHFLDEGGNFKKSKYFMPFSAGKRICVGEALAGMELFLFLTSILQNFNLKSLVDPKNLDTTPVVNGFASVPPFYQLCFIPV
Test: Cytochrome P450 family 2 subfamily C member 9 (CYP2C9) small molecule antagonists: luciferase biochemical (cell-free) qHTS assay (AID 1645842); also: nearly all actives have a fitted effect of over 55% in size
Conditions: P450-Glo CYP2C9 enzyme assay, luciferin luminescence; series mostly up to 57.4 µM
Results filed as inconclusive are left out. Active and inactive are the calls of the source. Calls come from the whole dose curve; as a rule, active = well fitted inhibition curve with a large enough effect in the repeat runs; inconclusive = weak or mixed curves; inactive = no such curve, though single readings can be large or run the other way.
// one of active, inactive, no free text

Check out these entries, answers already filled in.
Called result for COc1ccc([C@H](Cc2ccncc2)c2ccccc2)cc1OC1CCCC1 active

Same thing, different compound: C[C@H]1CO[C@@H]2Cn3cc(C(=O)NCc4ccc(F)cc4F)c(=O)c(O)c3C(=O)N12 inactive

Another compound to check: NCCOc1cc(C(=O)Nc2cc(OCCN)c3ccccc3n2)nc(C(=O)Nc2cc(OCCN)c3ccccc3n2)c1 inactive

Repeat with O=C(Nc1ccc(-n2nc(C(F)(F)F)cc2C(F)(F)F)cc1)c1ccncc1F active

Follow-up item: CCN1CCN(Cc2ccc(C(=O)Nc3ccc(C)c(Oc4ccc5c(c4)CC(=O)N5)c3)cc2C(F)(F)F)CC1 active

Please do the same for COc1ccc(S(=O)(=O)N2CCC[C@H]2C(=O)Nc2cc(C)cc(C)c2)cc1 as well. active

Would you mind doing NS(=O)(=O)c1ccc(N2N=C(c3ccccc3)CC2c2ccccc2)cc1 (stereo not given) as well? active

What would you report for CN[C@@H]1CCc2[nH]c3ccc(C(N)=O)cc3c2C1 ? inactive

***
Returns: the outcome recorded for CN(C)CC#CCCC(=O)C(O)(c1ccccc1)C1CCC1 (stereo not given) in this assay. active

Now the compound CC[C@H]1CN(c2nc(N)c(C(N)=O)nc2Cl)CCN1C1CCN(Cc2ccc(Cl)cc2)CC1 active

Same for CCCC(=O)C1(c2ccccc2)CCN(C(=O)[C@@H](Cc2ccc(OC)cc2)NC(=O)[C@@H](N)Cc2cncn2C)CC1 active

Moving on to Cc1cc(C)cc(-c2cnc3cc(Cl)c(-c4cccc(O)c4)cc3c2OCCCN)c1 active

Moving on to O=C(NCc1cccs1)c1cc2nc(-c3ccco3)cc(C(F)(F)Cl)n2n1 active

Try this compound too: CC(=O)NCc1cccc(OC[C@@H](O)CNCCc2ccc(NS(=O)(=O)c3ccccc3)cc2)c1 active

Proceed to CCN1CCC[C@@H]1CNC(=O)c1ccc2c(c1)NC(=O)c1cccc(C)c1S2 inactive

What about this compound? CN(C)CCN(Cc1ccc(-c2ccc(CNCCc3ccccc3)cc2)cc1)C(=O)CCC1CCCC1 active

Likewise for CNC(=O)COC(=O)N1CCC(CCc2ccc(Cl)cc2)CC1 ? active

Can you check COc1c(C)cnc(Cn2cc(C#CCC(C)(C)O)c3c(Cl)nc(N)nc32)c1C next? active

Same again, this time with CS(=O)(=O)Nc1ccc2oc3c(OC(F)F)ccc(C(=O)Nc4c(Cl)cncc4Cl)c3c2c1 active

Another compound: CCCCC(=O)O inactive

----------
Tested on: NIH3T3
Experiment: Cytotoxic Profiling of Annotated Libraries Using Quantitative High-Throughput Screening (AID 1296008); also: % is scaled to controls: 0 for no effect and ±100 for the full control effect; nearly all actives have a fitted effect of over 60% in size
Details: Five cell lines viability, CellTiter-Glo ATP luminescence, 48-72 h; hits give low values
Inconclusive results are not listed.
Rule for this label: MET means max response is less than -10%; NOT MET means max response is at least -10%.

Known results for molecules:
In the record for C/C(=C/CO)CCC1C(C)CCC2C(C)(C)CCCC12C (stereo unspecified) , is max response less than -10%? NOT MET

And the next one, COc1ccc2c(NC(=O)Nc3cccc(C(F)(F)F)n3)ccnc2c1 ? NOT MET

Now try Cc1cccc(CC(=O)N2CCc3c2ccc(-c2cn(C)c4ncnc(N)c24)c3F)n1 . NOT MET

Same lookup for CC(C)c1ccc(NC(=O)c2cccs2)c(-c2nc3ccccc3[nH]c2=O)c1 , please. NOT MET

Next molecule up: C=C1/C(=C/C=C2\CCC[C@]3(C)[C@@H]([C@@H](C)OCCC(O)(CC)CC)CC[C@@H]23)C[C@@H](O)C[C@@H]1O MET

Further cases:
Threshold test, max response < -10%: CCCC(=O)C1(c2ccccc2)CCN(C(=O)[C@@H](Cc2ccc(OC)cc2)NC(=O)[C@@H](N)Cc2cncn2C)CC1 NOT MET

Now consider C=C(CCC1C(C)(O)CCC2C(C)(C)C(O)CCC12C)C(O)CO (stereo unspecified) . NOT MET

Same question, CN(C)CCC(CSc1ccccc1)Nc1ccc(S(=O)(=O)NC(=O)c2ccc(N3CCN(Cc4ccccc4-c4ccc(Cl)cc4)CC3)cc2)cc1[N+](=O)[O-] (stereo unspecified) this time MET

Lookup O=C(c1ccc(Cl)cc1)N1CCN(c2ccnc3cc(Cl)ccc23)CC1 NOT MET

Field entry: CCC/C=C/C=C/C1CC(O)C2(O)C(=O)OCC12 (stereo unspecified) NOT MET

Try this molecule too: Cc1ccc(-c2cn3c4c(sc3n2)CCCC4)cc1 MET

Please do the same for COc1ccc(N2CCN(C(=O)c3cc4c(s3)-c3ccccc3S(=O)(=O)C4)CC2)cc1 as well. MET

Follow-up item: Cn1c(SCC(=O)N2CCC[C@H]2C(=O)Nc2ccccc2-c2ccccc2)nc2ccccc21 NOT MET

Also CC(C)Nc1nc(Nc2ccccc2)nc(-c2ccccc2)n1 ? MET

Query O=C1C[C@]23C=CCN4CCC5c6cc7c(cc6N1[C@@]5(CC2)C43)OCO7 (stereo partly specified) next NOT MET

----------
A collection of compounds and their measured max response
Tested on: KB-3-1
Test: Cytotoxic Profiling of Annotated Libraries Using Quantitative High-Throughput Screening (AID 1296008); also: % is scaled to controls: 0 for no effect and ±100 for the full control effect; nearly all actives have a fitted effect of over 60% in size
Conditions: Five cell lines viability, CellTiter-Glo ATP luminescence, 48-72 h; hits give low values
Procedure: Cell-based phenotypic screening is a commonly used approach to discover biological pathways, novel drug targets, chemical probes and high-quality hit-to-lead molecules. […] A pintool (Kalypsys) was used to transfer 23 nL of compound solution to the 1536-well assay plates. […] Plates were left at room temperature for 10 min before imaging the ATP-coupled luminescence using a ViewLux microplate imager (PerkinElmer, Waltham, MA).
Records with an inconclusive call do not appear.
Quick note: give the figure in %, leave out the unit.

Consider the reported max response for these compounds:
Need max response of CC#CCC(C)[C@H](O)/C=C/[C@@H]1[C@H]2c3cccc(CCCC(=O)O)c3O[C@H]2C[C@H]1O (some centres undefined) , thanks. -28.3

Same again, this time with Cc1cc2sc(NC(=O)Cc3ccccc3)nc2cc1Cl 3.53

Repeat with CC(=O)O[C@H]1CC(C)(C)CC2[C@]13CO[C@@]21CCC2[C@@]4(C)CC[C@H](O[C@@H]5OC[C@H](O[C@@H]6O[C@H](CO)[C@@H](O)[C@H](O)[C@H]6O[C@@H]6OC[C@@H](O[C@@H]7O[C@H](CO)[C@@H](O)[C@H](O)[C@H]7O)[C@H](O)[C@H]6O)[C@H](O)[C@H]5O[C@@H]5O[C@H](CO)[C@@H](O)[C@H](O)[C@H]5O)[C@@](C)(CO)C4CC[C@@]2(C)[C@]1(C)C[C@H]3O (some centres undefined) -6.99

Others:
Need max response of C=C1CC2C3CCC4=CC(=O)C=C[C@]4(C)[C@@]3(F)[C@@H](O)C[C@]2(C)[C@@]1(O)C(=O)COC(C)=O (some centres undefined) , thanks. 3

Moving on to Cc1cccc(-c2[nH]ncc2-c2ccc(F)c(-c3cnn(CCO)c3)c2)n1 -8.92

Same again, this time with C=CCNC1=C2C[C@@H](C)C[C@H](OC)[C@H](O)[C@@H](C)/C=C(\C)[C@H](OC(N)=O)[C@@H](OC)/C=C\C=C(/C)C(=O)NC(=CC1=O)C2=O -34.3

Same question for CC(C)(C)c1ccc2c(c1)CC[C@H]2NC(=O)Nc1cccc2[nH]ncc12 please. -1.56

Cc1c(NC(=O)OCC2COCCN2)cn2ncnc(Nc3ccc4c(cnn4Cc4cccc(F)c4)c3)c12 (centres undefined) , same question. -18.9

Same again, this time with c1cnc2cc3c(cc2n1)[C@@H]1CNC[C@H]3C1 -10.7

Okay, and Nc1ncnc2c1c(-c1ccc(Oc3ccccc3)cc1)nn2[C@@H]1CCCNC1 ? -20

What do you get for CC1(NC(=O)c2ccc(C#Cc3cccc(F)c3)cn2)COC1 ? -5.29

Queued: COc1ccc(CNCC(O)COc2ccc3[nH]c(=O)ccc3c2)cc1OC (centres undefined) 2.61

Please do the same for CCN(CCNC(=O)Nc1ccccc1Br)c1cccc(C)c1 as well. 2.25

Moving on to Cc1nc2cc(C(=O)NCc3ccccn3)nn2c(C)c1Cc1cccc(Cl)c1 -9.98

And for COc1cc(/C=N\NC(=O)c2ccc3c(c2)OCO3)ccc1OCc1ccccc1 ? -9.36

Also check COc1cc(F)c(F)c(Nc2ccc(I)cc2F)c1NS(=O)(=O)C1(CC(O)CO)CC1 (centres undefined) -14.8

Moving on to C=C1CC[C@H]2C(=C)CC[C@H]3C(=C)C(=O)O[C@@H]3[C@@H]12 -8.05

Then CC(C)(C)NC(=O)[C@H]1CC[C@H]2[C@@H]3CC=C4C=C(C(=O)O)CC[C@]4(C)[C@H]3CC[C@]12C ? -6.72

Another compound to check: C=C[C@@]1(C)CCC2C(=CCC3[C@]2(C)CCC[C@@]3(C)C(=O)O)C1 (some centres undefined) -10.5

# iterate: COC(=O)CC[C@@H](C)C1CCC2C3CCC4C[C@H](OC(C)=O)CCC4(C)C3C[C@H](O)C21C (some centres undefined) 9.49

Quick one: C=CC(C)(C)C12CC3C(=O)N4C(CC5(C(C)(C)C=C)c6ccccc6NC45)C(=O)N3C1Nc1ccccc12 (centres undefined) 3.74

Now the same for COc1cc2nc(N3CCN(C(=O)COc4c(OC)cccc4C(C)C)CC3)nc(N)c2cc1OC 8.96

Here is the next compound: C/C=C(\C)C(=O)OC1C[C@@]2(COC(C)=O)O[C@H]2/C=C\[C@@]2(C)O[C@@H]2[C@H]2OC(=O)C(COC(C)=O)=C12 (some centres undefined) 7.77

Again, but for O=C(Nc1ccn(Cc2ccc(O)cc2C(F)(F)F)n1)c1c(F)cccc1F -23.9
